test.system: IDH (endogenous IDH1 R132C) in HT1080 cell (Homo sapiens, UniProt O75874, R132C)
Construct: which harbor endogenous heterozygous IDH1 R132C and R132H mutation respectively and accumulate D-2-HG
Sequence (O75874 2-414 R132C): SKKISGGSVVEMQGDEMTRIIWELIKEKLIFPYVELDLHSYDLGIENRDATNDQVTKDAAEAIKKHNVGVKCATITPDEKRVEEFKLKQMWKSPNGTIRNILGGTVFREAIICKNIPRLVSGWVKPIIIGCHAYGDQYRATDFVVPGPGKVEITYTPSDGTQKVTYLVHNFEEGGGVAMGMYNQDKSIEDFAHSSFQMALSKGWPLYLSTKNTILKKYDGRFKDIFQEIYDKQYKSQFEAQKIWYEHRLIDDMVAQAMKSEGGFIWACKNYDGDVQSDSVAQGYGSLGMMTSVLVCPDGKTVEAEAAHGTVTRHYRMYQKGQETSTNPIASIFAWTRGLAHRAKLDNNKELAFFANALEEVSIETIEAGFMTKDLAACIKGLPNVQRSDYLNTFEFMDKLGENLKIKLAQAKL
method.notes: Cell-based assay for IDH inhibition (decrease of D-2-HG) in HT1080 cells
assay.conditions: human fibrosarcoma cell line HT1080, 16 hours treatment, D-2-HG by LC-MS, in triplet

[
  {
    "input.smiles": "CCN1Cc2c(ccnc2N[C@@H](C)c2ccc(Oc3ccc4c(c3)cc(C)n4C)c(F)c2)C1=O",
    "test.system": "IDH (endogenous IDH1 R132C) in HT1080 cell (Homo sapiens, UniProt O75874, R132C)",
    "IC50": "> 1000 nM"
  },
  {
    "input.smiles": "CCN1Cc2c(ccnc2N[C@@H](C)c2cc(F)c(-c3ccnc(C(C)(C)F)c3)cc2F)C1=O",
    "test.system": "IDH (endogenous IDH1 R132C) in HT1080 cell (Homo sapiens, UniProt O75874, R132C)",
    "IC50": "100 to 500 nM"
  },
  {
    "input.smiles": "C[C@H](Nc1nccc2c1CN(CCO)C2=O)c1cc(F)c(-c2ccnc(C(C)(C)C)c2)cc1F",
    "test.system": "IDH (endogenous IDH1 R132C) in HT1080 cell (Homo sapiens, UniProt O75874, R132C)",
    "IC50": "100 to 500 nM"
  },
  {
    "input.smiles": "CCN1Cc2c(ccnc2N[C@@H](C)c2cc(F)c(-c3ccnc(-c4ccccc4)c3)cc2F)C1=O",
    "test.system": "IDH (endogenous IDH1 R132C) in HT1080 cell (Homo sapiens, UniProt O75874, R132C)",
    "IC50": "100 to 500 nM"
  },
  {
    "input.smiles": "CCN1Cc2c(ccnc2N[C@@H](C)c2cc(F)c(-c3nc(C(C)(C)C)ccc3OC)cc2F)C1=O",
    "test.system": "IDH (endogenous IDH1 R132C) in HT1080 cell (Homo sapiens, UniProt O75874, R132C)",
    "IC50": "< 100 nM"
  },
  {
    "input.smiles": "CCN1Cc2c(ccnc2N[C@@H](C)c2cc(F)c(-c3ccc(OC)c(C(C)(C)C)n3)cc2F)C1=O",
    "test.system": "IDH (endogenous IDH1 R132C) in HT1080 cell (Homo sapiens, UniProt O75874, R132C)",
    "IC50": "100 to 500 nM"
  },
  {
    "input.smiles": "CCN1Cc2c(ccnc2N[C@@H](C)c2cc(F)c(-c3cc(C(C)(C)C)ncc3O)cc2F)C1=O",
    "test.system": "IDH (endogenous IDH1 R132C) in HT1080 cell (Homo sapiens, UniProt O75874, R132C)",
    "IC50": "< 100 nM"
  },
  {
    "input.smiles": "CCN1Cc2c(ccnc2N[C@@H](C)c2cc(F)c(-c3cc(C(C)(C)C)ncc3OC)cc2F)C1=O",
    "test.system": "IDH (endogenous IDH1 R132C) in HT1080 cell (Homo sapiens, UniProt O75874, R132C)",
    "IC50": "< 100 nM"
  },
  {
    "input.smiles": "CCN1Cc2c(ccnc2N[C@@H](C)c2cnc(-c3cc(C(C)(C)C)ccn3)c(F)c2)C1=O",
    "test.system": "IDH (endogenous IDH1 R132C) in HT1080 cell (Homo sapiens, UniProt O75874, R132C)",
    "IC50": "500 to 1000 nM"
  },
  {
    "input.smiles": "CCN1Cc2c(ccnc2N[C@@H](C)c2cc(F)c(-c3cc(C(F)(F)F)ncc3OC)cc2F)C1=O",
    "test.system": "IDH (endogenous IDH1 R132C) in HT1080 cell (Homo sapiens, UniProt O75874, R132C)",
    "IC50": "100 to 500 nM"
  },
  {
    "input.smiles": "CCN1Cc2c(ccnc2N[C@@H](C)c2cc(F)c(-c3ccnc(C4CC4)c3)cc2F)C1=O",
    "test.system": "IDH (endogenous IDH1 R132C) in HT1080 cell (Homo sapiens, UniProt O75874, R132C)",
    "IC50": "500 to 1000 nM"
  },
  {
    "input.smiles": "CCN1Cc2c(ccnc2N[C@@H](C)c2ccc(C3CCN(C(C)(C)C)CC3)c(F)c2)C1=O",
    "test.system": "IDH (endogenous IDH1 R132C) in HT1080 cell (Homo sapiens, UniProt O75874, R132C)",
    "IC50": "> 1000 nM"
  },
  {
    "input.smiles": "CCN1Cc2c(ccnc2N[C@@H](C)c2ccc(C(=O)c3ccccc3)c(F)c2)C1=O",
    "test.system": "IDH (endogenous IDH1 R132C) in HT1080 cell (Homo sapiens, UniProt O75874, R132C)",
    "IC50": "> 1000 nM"
  },
  {
    "input.smiles": "CCN1Cc2c(ccnc2N[C@@H](C)c2cc(F)c(-c3cc(C(F)(F)F)ncc3O)cc2F)C1=O",
    "test.system": "IDH (endogenous IDH1 R132C) in HT1080 cell (Homo sapiens, UniProt O75874, R132C)",
    "IC50": "> 1000 nM"
  },
  {
    "input.smiles": "CCN1Cc2c(ccnc2N[C@@H](C)c2cc(F)c(-c3ccnc(C4CCC4)c3)cc2F)C1=O",
    "test.system": "IDH (endogenous IDH1 R132C) in HT1080 cell (Homo sapiens, UniProt O75874, R132C)",
    "IC50": "100 to 500 nM"
  },
  {
    "input.smiles": "CCN1Cc2c(ccnc2N[C@@H](C)c2ccc(Oc3ccc(C(C)(C)C)nc3)c(F)c2)C1=O",
    "test.system": "IDH (endogenous IDH1 R132C) in HT1080 cell (Homo sapiens, UniProt O75874, R132C)",
    "IC50": "500 to 1000 nM"
  },
  {
    "input.smiles": "CCN1Cc2c(ccnc2N[C@H](C)c2ccc(Oc3ccccc3)c(F)c2)C1=O",
    "test.system": "IDH (endogenous IDH1 R132C) in HT1080 cell (Homo sapiens, UniProt O75874, R132C)",
    "IC50": "> 1000 nM"
  },
  {
    "input.smiles": "CCN1Cc2c(ccnc2N[C@@H](C)c2ccc(Oc3cccnc3)c(F)c2)C1=O",
    "test.system": "IDH (endogenous IDH1 R132C) in HT1080 cell (Homo sapiens, UniProt O75874, R132C)",
    "IC50": "> 1000 nM"
  },
  {
    "input.smiles": "CCN1Cc2c(ccnc2N[C@@H](C)c2cc(F)c(-c3ccnc(C4COC4)c3)cc2F)C1=O",
    "test.system": "IDH (endogenous IDH1 R132C) in HT1080 cell (Homo sapiens, UniProt O75874, R132C)",
    "IC50": "> 1000 nM"
  },
  {
    "input.smiles": "CCN1Cc2c(ccnc2N[C@@H](C)c2cc(F)c(-c3cc(OC(C)(C)C)ncc3C)cc2F)C1=O",
    "test.system": "IDH (endogenous IDH1 R132C) in HT1080 cell (Homo sapiens, UniProt O75874, R132C)",
    "IC50": "< 100 nM"
  },
  {
    "input.smiles": "CCN1Cc2c(ccnc2N[C@@H](C)c2cc(F)c(-c3cc(C(F)(F)F)cc(C)n3)cc2F)C1=O",
    "test.system": "IDH (endogenous IDH1 R132C) in HT1080 cell (Homo sapiens, UniProt O75874, R132C)",
    "IC50": "100 to 500 nM"
  },
  {
    "input.smiles": "CCN1Cc2c(ccnc2N[C@@H](C)c2cc(F)c(-c3cc(C(F)(F)F)cc(F)n3)cc2F)C1=O",
    "test.system": "IDH (endogenous IDH1 R132C) in HT1080 cell (Homo sapiens, UniProt O75874, R132C)",
    "IC50": "100 to 500 nM"
  },
  {
    "input.smiles": "CCN1Cc2c(ccnc2N[C@@H](C)c2ccc(Cc3ccccc3)c(F)c2)C1=O",
    "test.system": "IDH (endogenous IDH1 R132C) in HT1080 cell (Homo sapiens, UniProt O75874, R132C)",
    "IC50": "> 1000 nM"
  },
  {
    "input.smiles": "CCN1Cc2c(ccnc2N[C@@H](C)c2ccc(-c3ccnc(C(C)(C)C)c3)c(F)c2)C1=O",
    "test.system": "IDH (endogenous IDH1 R132C) in HT1080 cell (Homo sapiens, UniProt O75874, R132C)",
    "IC50": "100 to 500 nM"
  },
  {
    "input.smiles": "CCN1Cc2c(ccnc2N[C@@H](C)c2ccc(C(=O)c3cccnc3)c(F)c2)C1=O",
    "test.system": "IDH (endogenous IDH1 R132C) in HT1080 cell (Homo sapiens, UniProt O75874, R132C)",
    "IC50": "> 1000 nM"
  },
  {
    "input.smiles": "CCN1Cc2c(ccnc2N[C@@H](C)c2cc(F)c(-c3ccnc(C(C)(C)C)n3)cc2F)C1=O",
    "test.system": "IDH (endogenous IDH1 R132C) in HT1080 cell (Homo sapiens, UniProt O75874, R132C)",
    "IC50": "100 to 500 nM"
  },
  {
    "input.smiles": "CCN1Cc2c(ccnc2N[C@@H](C)c2ccc(C(=O)NC3CCCCC3)c(Cl)c2)C1=O",
    "test.system": "IDH (endogenous IDH1 R132C) in HT1080 cell (Homo sapiens, UniProt O75874, R132C)",
    "IC50": "> 1000 nM"
  },
  {
    "input.smiles": "CCN1Cc2c(ccnc2N[C@@H](C)c2cc(F)c(-c3cc(C(C)(C)F)ncn3)cc2F)C1=O",
    "test.system": "IDH (endogenous IDH1 R132C) in HT1080 cell (Homo sapiens, UniProt O75874, R132C)",
    "IC50": "100 to 500 nM"
  },
  {
    "input.smiles": "CCN1Cc2c(ccnc2N[C@@H](C)c2ccc(-c3ccc(C)cc3)c(F)c2)C1=O",
    "test.system": "IDH (endogenous IDH1 R132C) in HT1080 cell (Homo sapiens, UniProt O75874, R132C)",
    "IC50": "> 1000 nM"
  },
  {
    "input.smiles": "CCN1Cc2c(ccnc2N[C@@H](C)c2cc(F)c(-c3ccnc(C(C)(C)C)c3)cc2F)C1=O",
    "test.system": "IDH (endogenous IDH1 R132C) in HT1080 cell (Homo sapiens, UniProt O75874, R132C)",
    "IC50": "< 100 nM"
  },
  {
    "input.smiles": "CCN1Cc2c(ccnc2N[C@@H](C)c2ccc(-c3ccc4c(ccn4C)c3)c(F)c2)C1=O",
    "test.system": "IDH (endogenous IDH1 R132C) in HT1080 cell (Homo sapiens, UniProt O75874, R132C)",
    "IC50": "> 1000 nM"
  }
]
